Overview of recorded TGI for various compounds
test system: OVCAR-5 ovarian; test: NCI tumour cell line growth inhibition, 48 h

Answered cases to consult:
[
  {
    "Compound": "N#CC(c1ccccc1)N(CCc1ccccc1)C(=O)Oc1ccccc1 (stereo not given)",
    "System tested": "OVCAR-5 ovarian",
    "TGI": "> 100 µM"
  },
  {
    "Compound": "COc1ccc2[nH]c3c(C)c4cnccc4c(C)c3c2c1",
    "System tested": "OVCAR-5 ovarian",
    "TGI": "> 10 µM"
  },
  {
    "Compound": "CC(C)Cc1cccc(C(C)C)c1NC(=O)CCC(=O)N/N=C1\\C(=N/NC(=O)CCC(=O)Nc2c(C(C)C)cccc2C(C)C)C(c2ccc3c(c2)OCO3)Oc2ccccc21 (stereo not given)",
    "System tested": "OVCAR-5 ovarian",
    "TGI": "> 100 µM"
  },
  {
    "Compound": "COc1cc(/C=C/C(=O)c2ccc(Nc3nc(Nc4ccccc4)nc(Nc4ccc(Cl)cc4)n3)cc2)cc(OC)c1OC",
    "System tested": "OVCAR-5 ovarian",
    "TGI": "> 32.5 µM"
  }
]

Could you now consider this next compound?
// query Provide value of TGI for this record tested with OVCAR-5 ovarian: "Cc1nc(N)sc1C(=O)/C=C/c1ccc([N+](=O)[O-])cc1"
// result > 100 µM
